Data credit: PubChem BioAssay (NCI)

- Tested on: HCC-2998 colon
- method.notes: NCI tumour cell line growth inhibition, 48 h; in the data active means GI50 below about 0.43 µM; inactive means the rest
Labels: T for active, F for inactive

1) C=C1C(=O)O[C@H]2[C@H]1CC/C(C=Nc1c(N)cc(C(F)(F)F)cc1C(F)(F)F)=C\CC[C@@]1(C)O[C@@H]21    F
2) N#Cc1c(N2CCOCC2)nc(=S)[nH]c1-c1ccccc1    F
3) Cn1cc(C2=C(c3c4n(c5ccccc35)CCC(CN)C4)C(=O)NC2=O)c2ccccc21 (stereo not drawn)    F
4) COc1ccc2c(c1)oc(=O)c1cc(OC)ccc12    F
5) CC[C@@H](C(=O)[C@H](C)[C@H](O)[C@@H](C)[C@H]1O[C@H]([C@@H](CC)C(=O)N(CC)CC)CC[C@H]1C)C1O[C@]2(C=C[C@@H](O)[C@]3(CC[C@@](C)([C@H]4CC[C@](O)(CC)[C@H](C)O4)O3)O2)[C@H](C)C[C@@H]1C (stereo partly drawn)    F
6) CCCc1cc(=O)n2c(C(=O)Nc3cccc(C(=O)OCC)c3)c(C(=O)Nc3ccc(F)cc3)sc2n1    F
7) N#Cc1c(N)n2c(nc1=Nc1ccc(Cl)cc1)sc1cc(Cl)ccc12    F
8) S=C(NCCNC(=S)[S][Sn]([c]1ccccc1)([c]1ccccc1)[c]1ccccc1)[S][Sn]([c]1ccccc1)([c]1ccccc1)[c]1ccccc1    T
9) Cc1ccc2c(c1)c(Sc1ccc(C(=O)NO)cc1)c1n2CN(C)CC1    F
10) COc1cccc(/C=N/NC(=O)c2ccccc2N2CCCC2)c1O    F
11) CCNC(=O)Nc1ccc(Oc2ccnc3ccc4c(ccn4C)c23)cc1    F
12) N/C(=N/N=C/c1ccccc1)N/N=C\c1ccccc1    F
13) CC[C@@]1(O)C(=O)OCc2c1cc1n(c2=O)Cc2cc3cccc([N+](=O)[O-])c3nc2-1    F

###

Recorded TGI by entry
- Tested on: SK-OV-3 ovarian
- method.notes: NCI tumour cell line growth inhibition, 48 h
Where a SMILES comes first, the peptide text is derived from it. Bridges are numbered along the chain shown (N, C = ends). [ ]: non-standard residue; d: D form. The star is where a group is joined. ξ: configuration not given here. Phe(4-NO2) = N[CH](Cc1ccc([N+](=O)[O-])cc1)C(=O)O; ξDab(CH2SO3H) = NC(CCNCS(=O)(=O)O)C(=O)O; Heptanoyl(6-Me) = CC(C)CCCCC(=O)*; Dab = NCC[CH](N)C(=O)O
experimental.endpoint: TGI

1) COc1ccc(Cc2c(=O)[nH]nc3ccccc23)cc1    > 100 µM
2) N#Cc1cc([N+](=O)[O-])ccc1NC(=O)/C(=N\NC(=O)c1ccncc1)C(c1cnc2ccc([N+](=O)[O-])cc2n1)[N+](=O)[O-] (stereo unspecified)    20 µM
3) CCC(C)C1NC(=O)C(CCNCS(=O)(=O)O)NC(=O)C(NC(=O)C(CCNCS(=O)(=O)O)NC(=O)C(NC(=O)C(CCNCS(=O)(=O)O)NC(=O)CCCCC(C)C)C(C)O)CCNC(=O)C(C(C)O)NC(=O)C(CCNCS(=O)(=O)O)NC(=O)C(CCNCS(=O)(=O)O)NC(=O)C(C(C)CC)NC1=O (stereo unspecified) ({Heptanoyl(6-Me)}-[ξDab(CH2SO3H)]T[ξDab(CH2SO3H)][Dab][ξDab(CH2SO3H)]II[ξDab(CH2SO3H)][ξDab(CH2SO3H)]T; lactam 4-C; configuration not given here)    > 25 µM
4) CC(=NNC(=S)Nc1cccc(C)c1)c1cccc(C(C)=NNC(=S)Nc2cccc(C)c2)n1    > 100 µM
5) Cc1c2c(OCC(O)CN3CCN(c4ccccc4)CC3)nn(C)c(=O)c2c(C)n1-c1ccccc1 (stereo unspecified)    > 100 µM
6) CCOC(=O)Cn1c(=O)c2nc(SC)sc2n(-c2ccccc2)c1=S    60.7 µM
7) Cc1cc(C)n(-c2ccnc3cc(Cl)ccc23)n1    > 100 µM
8) CCN(CC)CCN(C(=Nc1ccccc1)N1CCCCC1)c1ccccc1    24.2 µM
9) CC1=NC2c3c(-c4ccc(Cl)cc4)cn(-c4ccc(C)cc4)c3N=CN2N1 (stereo unspecified)    > 100 µM
10) COc1cc2ncnc(Nc3cccc(Cl)c3F)c2cc1OC(=O)N1CCN(C)C[C@H]1C    > 32.1 µM
11) CN(C)CCCSc1nc2c(c(=N)n1-c1ccccc1)c(=S)n(-c1ccccc1)c(=S)n2-c1ccccc1    6.86 µM
12) O=C(c1nc2ccccc2[nH]c1=O)C(O)c1ccco1 (stereo unspecified)    > 100 µM
13) C[C@]12CC[C@@H]3c4cc(OC(F)F)c(OS(N)(=O)=O)cc4CC[C@H]3[C@@H]1CC[C@@H]2OS(N)(=O)=O    33.2 µM
14) N=N/C(=C\c1c(O)[nH]c2ccccc12)c1ccccc1    > 90.2 µM
15) CCOC(=O)CCSc1nc2ccc(I)cc2c(=O)n1Cc1ccccc1    > 100 µM
16) CC1(C)CC(=O)C2=C(C1)NC1=C(C2)C(=O)CC(C)(C)C1    > 100 µM
17) COc1cc2c(cc1Cc1cccc(Cl)c1F)c(=O)c(C(=O)O)cn2[C@@H](CO)C(C)C    26.3 µM
18) CNC(=O)NCCN1CC2CCC(CC2)C1    > 10 µM
19) O=C(OCc1ccc([N+](=O)[O-])cc1)N1c2ccccc2[C@@]23O[C@]24CCC[C@H]3C#C/C=C\C#C[C@H]14    > 100 µM
20) COc1ccc(NC(=O)CC/C(CC(=O)c2ccco2)=N/NC(N)=S)cc1    > 100 µM
21) CCc1nc(N)nc(N)c1-c1ccc2nnn(O)c2c1    > 100 µM
22) O=C(NCc1cccnc1)C1COc2cc(-c3cc(=O)c4ccccc4o3)ccc2O1 (stereo unspecified)    > 100 µM
23) COC(=O)C(C)(C)[C@@H]1OC(=O)N(S(=O)(=O)c2c(C)cc(C)cc2C)[C@H]1C(C)C    > 100 µM
24) COC(=O)C1=COC(C)C2CN3CCc4c([nH]c5cc(OC)c(OC)cc45)C3CC12 (stereo unspecified)    > 100 µM
25) NC(N)=NC(N)=Nc1cnccn1    > 100 µM
26) O=C(O)CCc1nc2ccccc2[nH]1    > 100 µM
27) NC1CCCCC1N.O=[Se]([O-])[O-].[Pt+4] (stereo unspecified)    > 100 µM
28) CC(NC(=O)C(Cc1ccc([N+](=O)[O-])cc1)NC(=O)C(N)CCCCN)C(=O)NC(Cc1ccc([N+](=O)[O-])cc1)C(N)=O (stereo unspecified) (H-K[Phe(4-NO2)]A[Phe(4-NO2)]-NH2; configuration not given here)    > 100 µM
29) c1ccc(C(NC2=NCCO2)c2ccccc2)cc1    > 10 µM
30) C#CCN(Cc1nc2cc(C(F)(F)F)ccc2nc1-c1ccccc1)c1ccc(C)cc1    > 26.4 µM
31) O=C1C=CC2(C=C1)CCNC1=C2C(=O)c2ccccc2C1=O    > 100 µM
32) Cc1nc(-c2nc(-c3ccc(OC(F)(F)F)cc3)no2)nn1Cc1cccc(N2CCC(S(C)(=O)=O)CC2)c1    89.8 µM
33) Cc1ccc2c(c1)c(Sc1ccc(C(=O)NO)cc1)c1n2CN(C)CC1    3.8 µM
34) O=c1c2ccccc2nc2n1-c1ccccc1SC2    > 100 µM
35) O=C(OC1CCC2OOC1O2)c1ccc([N+](=O)[O-])cc1 (stereo unspecified)    > 100 µM
36) CCOC(=O)C(Cc1cn(C(C)=O)c2ccccc12)P(=O)(OCC)OCC (stereo unspecified)    > 100 µM

###

Recorded TGI by entry
- System: SNB-19 CNS
- method.notes: NCI tumour cell line growth inhibition, 48 h
experimental.endpoint: TGI

1) CCc1nc(N)nc(N)c1-c1ccc2nnn(O)c2c1    > 100 µM
2) S=C(NCCNC(=S)[S][Sn]([c]1ccccc1)([c]1ccccc1)[c]1ccccc1)[S][Sn]([c]1ccccc1)([c]1ccccc1)[c]1ccccc1    0.139 µM
3) CC(=O)O[C@@H]1C(=O)N(c2ccccc2)[C@@H]1c1cc2ccccc2c2ccccc12    > 100 µM
4) O=C(OC1CCC2OOC1O2)c1ccc([N+](=O)[O-])cc1 (stereo not given)    > 100 µM
5) O=C(O)C(C(=O)O)P(=S)(S)c1ccccc1 (stereo not given)    > 100 µM

###

- System: PC-3 prostate
- method.notes: NCI tumour cell line growth inhibition, 48 h
Where a SMILES comes first, the peptide text is derived from it. Bridges are numbered along the chain shown (N, C = ends). [ ]: non-standard residue; d: D form. The star is where a group is joined. ξ: configuration not given here. ξDab(CH2SO3H) = NC(CCNCS(=O)(=O)O)C(=O)O; Heptanoyl(6-Me) = CC(C)CCCCC(=O)*; Dab = NCC[CH](N)C(=O)O
experimental.endpoint: TGI

1) CCCc1cc(=O)n2c(C(=O)Nc3cccc(C(=O)OCC)c3)c(C(=O)Nc3ccc(F)cc3)sc2n1    > 140 µM
2) O=c1[nH]nc(Cc2ccccc2)n1CCCl    > 100 µM
3) CCC(C)C1NC(=O)C(CCNCS(=O)(=O)O)NC(=O)C(NC(=O)C(CCNCS(=O)(=O)O)NC(=O)C(NC(=O)C(CCNCS(=O)(=O)O)NC(=O)CCCCC(C)C)C(C)O)CCNC(=O)C(C(C)O)NC(=O)C(CCNCS(=O)(=O)O)NC(=O)C(CCNCS(=O)(=O)O)NC(=O)C(C(C)CC)NC1=O (stereo unspecified) ({Heptanoyl(6-Me)}-[ξDab(CH2SO3H)]T[ξDab(CH2SO3H)][Dab][ξDab(CH2SO3H)]II[ξDab(CH2SO3H)][ξDab(CH2SO3H)]T; lactam 4-C; configuration not given here)    > 25 µM
4) CCOC(=O)C(Cc1cn(C(C)=O)c2ccccc12)P(=O)(OCC)OCC (stereo unspecified)    > 100 µM
5) COc1ccc2c(O)c(/C=C3\N=Nc4ccccc43)oc2c1C[C@@H]1CCNC[C@H]1F    15.4 µM
6) CC1=NC2c3c(-c4ccc(Cl)cc4)cn(-c4ccc(C)cc4)c3N=CN2N1 (stereo unspecified)    > 100 µM
7) CC(=O)Oc1ccc2cc(Oc3ccc(Cl)c(Cl)c3)c(=O)oc2c1    53.3 µM
8) CC1(C)CC(=O)C2=C(C1)NC1=C(C2)C(=O)CC(C)(C)C1    > 100 µM
9) CCCCCCn1c(-c2ccc(C(=O)O/N=C(\N)c3ccc4ccccc4c3)cc2)nc(-c2ccccc2)c1-c1ccccc1    > 100 µM
10) CC(=O)O[C@@H]1C(=O)N(c2ccccc2)[C@@H]1c1cc2ccccc2c2ccccc12    > 100 µM
11) CC1=NNC(=O)C1C1CC(c2c[nH]c3ccccc23)=NN(C(N)=O)C1=O (stereo unspecified)    > 100 µM
12) O=C(CCCN1CCC(Nc2ccccc2)(c2nnnn2C2CCCCC2)CC1)c1ccc(F)cc1    24.7 µM
13) O=C(/C(=C/c1ccc([N+](=O)[O-])cc1)SCc1ccc(Cl)cc1)c1ccc(F)cc1    5.74 µM
14) COc1ccc2nc3c([N+](=O)[O-])ccc(NCCCN(C)C)c3c(NCCCN(C)C)c2c1    2.24 µM
15) O=C([O][Hg][CH2]C1OCCOC1[CH2][Hg][O]C(=O)c1ccccc1)c1ccccc1 (stereo unspecified)    14.6 µM
16) C[C@]12CC[C@@H]3c4cc(O)c(O)cc4CC[C@H]3[C@@H]1CC[C@@H]2O    > 100 µM
